# tested-target: PD-1/PD-L1 (Homo sapiens)
# Construct: made in house; host or cells: HEK293T
# Sequence (Q9NZQ7 with tags, fused parts or gaps): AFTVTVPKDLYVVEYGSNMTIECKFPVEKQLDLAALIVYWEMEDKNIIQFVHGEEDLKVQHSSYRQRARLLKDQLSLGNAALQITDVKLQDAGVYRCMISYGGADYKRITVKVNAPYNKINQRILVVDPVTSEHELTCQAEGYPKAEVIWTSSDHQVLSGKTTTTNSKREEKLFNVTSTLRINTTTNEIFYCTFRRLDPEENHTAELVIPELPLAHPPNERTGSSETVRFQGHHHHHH
# experiment: PD-1/PD-L1 Homogenous Time-Resolved Fluorescence (HTRF) binding assay
# condition-info: PD-L1-His 10 nM, PD-1-Ig 20 nM; value given as range class; read-out: Range or IC50
pIC50: −log10 of the molar value.
test-readout: pIC50

• Cc1ccc(COc2cc(OCc3cccc(-c4cccc(OCCCN5CC[C@@H](O)C5)c4C)c3C)c(Cl)cc2CN2CCCC[C@H]2C(=O)O)cc1C = 8.00 to 9.68
• CCOC(=O)C1(O)CCN(CCCOc2cccc(-c3cccc(COc4cc(OCc5cncc(C#N)c5)c(CN5CCCC[C@H]5C(=O)O)cc4Cl)c3C)c2Cl)CC1 = 8.00 to 9.68
• Cc1c(COc2cc(OCc3cncc(C#N)c3)c(CN3CCCC[C@H]3C(=O)O)cc2Cl)cccc1-c1cccc(OCCCN2CC[C@@H](O)C2)c1F = 8.00 to 9.68
• Cc1c(CCCCN2CC[C@@H](O)C2)cccc1-c1cccc(COc2cc(OCc3cncc(C#N)c3)c(CN3CCN(C(=O)OC(C)(C)C)C[C@H]3C(=O)O)cc2Cl)c1C = 8.00 to 9.68
• Cc1c(COc2cc(OCc3cncc(C#N)c3)c(CN(C)[C@@H](CCO)C(=O)O)cc2Cl)cccc1-c1cccc(OCCCN2CC[C@@H](O)C2)c1C = 8.00 to 9.68

Continue with the next molecule.
## Task # lookup: pIC50 of Cc1c(COc2cc(OCc3cncc(C#N)c3)c(CN3CCOC[C@H]3C(=O)O)cc2Cl)cccc1-c1cccc(C(=O)N(C)C)c1C
## Result 5.00 to 5.70
